Target Or System: Tyrosine-protein kinase SYK (Homo sapiens) (UniProt P43405)
Measurement Type: Ki

Req: Specify Ki for Cc1ccc2c(c1)N(Cc1cc(F)cc3c1OCOC3)C(=O)C2N=O (stereo unspecified) , system Tyrosine-protein kinase SYK (Homo sapiens) (UniProt P43405).
Resp: > 30 µM

* * *

Target Or System: Mitogen-activated protein kinase 10 (Homo sapiens)
Sequence (P53779 whole entry): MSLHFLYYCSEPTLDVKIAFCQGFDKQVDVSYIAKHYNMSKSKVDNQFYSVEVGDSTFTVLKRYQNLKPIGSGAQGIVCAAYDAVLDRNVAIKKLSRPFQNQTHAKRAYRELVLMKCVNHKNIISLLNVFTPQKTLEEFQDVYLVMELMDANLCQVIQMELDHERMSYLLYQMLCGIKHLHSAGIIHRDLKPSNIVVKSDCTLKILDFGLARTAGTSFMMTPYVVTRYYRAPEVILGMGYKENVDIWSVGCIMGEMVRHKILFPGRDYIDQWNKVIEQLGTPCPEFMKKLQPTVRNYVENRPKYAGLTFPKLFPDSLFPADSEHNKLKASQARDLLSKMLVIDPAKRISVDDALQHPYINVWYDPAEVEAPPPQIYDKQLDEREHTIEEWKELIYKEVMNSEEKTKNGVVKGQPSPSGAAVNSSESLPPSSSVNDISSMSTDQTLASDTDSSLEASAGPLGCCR
Assay Procedure: Inhibition of JNK3 by spectrophotometric coupled enzyme assay
pKi: −log10 of the molar value.
Measurement Type: pKi

Answered cases to consult:
Compound: O=NC1C(=O)N(Cc2ccccc2)c2ccccc21 (stereo not given) [1-benzyl-3-(hydroxyimino)indolin-2-one]
Target Or System: Mitogen-activated protein kinase 10 (Homo sapiens)
pKi: < 5.00

Compound: O=NC1C(=O)N(Cc2ccccc2[N+](=O)[O-])c2ccccc21 (stereo not given)
Target Or System: Mitogen-activated protein kinase 10 (Homo sapiens)
pKi: < 5.00

Compound: O=NC1C(=O)N(Cc2ccccc2)c2ccc(F)cc21 (stereo not given)
Target Or System: Mitogen-activated protein kinase 10 (Homo sapiens)
pKi: < 5.00

Compound: Cc1cccc(CN2C(=O)C(N=O)c3cc(C)ccc32)c1 (stereo not given)
Target Or System: Mitogen-activated protein kinase 10 (Homo sapiens)
pKi: < 5.00

Req: Tell me measured pKi for Cc1ccc2c(c1)C(N=O)C(=O)N2Cc1ccccc1 (stereo not given) please.
Resp: < 5.00

FYI, the data here is from BindingDB's records for doi:10.1016/j.bmcl.2009.03.043.
